system: barnyardgrass (Echinochloa crus-galli); assay: Test C preemergence, visual plant response rating; assay type: in vivo; conditions: Test C, 125 g ai/ha, 0 is no effect, 100 is complete control
reported.property: Barnyardgrass plant response rating (0 to 100 scale)

[[record]]
compound = "C#CCO/N=C(\\c1ccc(F)c(Cl)c1)c1c(O)c(C)nn(C)c1=O [Compound 230]"
reported_measurement = 0

[[record]]
compound = "CCO/N=C(/c1c(O)c(Cl)nn(C)c1=O)c1cc(Br)cc2ccccc12 [Compound 236]"
reported_measurement = 90

[[record]]
compound = "CO/N=C(\\c1cc(F)cc(C)c1F)c1c(O)c(C)nn(C)c1=O [Compound 193]"
reported_measurement = 60

[[record]]
compound = "CO/N=C(/c1c(O)cnn(C)c1=O)c1ccc(F)c2ccccc12 [Compound 304]"
reported_measurement = 0

[[record]]
compound = "CO/N=C(/c1cccc(Br)c1)c1c(O)c(C)nn(C)c1=O [Compound 234]"
reported_measurement = 0

[[record]]
compound = "CO/N=C(\\c1cccc(Br)c1)c1c(O)c(C)nn(C)c1=O [Compound 239]"
reported_measurement = 0

[[record]]
compound = "CO/N=C(\\c1ccc(Cl)c(Cl)c1)c1c(O)c(C)nn(C)c1=O [Compound 217]"
reported_measurement = 0

[[record]]
compound = "CCCCON=C(c1cc(Cl)cc(Cl)c1Cl)c1c(O)c(C)nn(C)c1=O [Compound 268]"
reported_measurement = 70

[[record]]
compound = "CO/N=C(/c1ccc(F)c(Cl)c1)c1c(O)c(C)nn(C)c1=O [Compound 218]"
reported_measurement = 0

[[record]]
compound = "CO/N=C(\\c1c(OC(C)=O)c(Cl)nn(C)c1=O)c1cc(Br)cc2ccccc12 [Compound 231]"
reported_measurement = 90

[[record]]
compound = "CCO/N=C(/c1c(O)cnn(C)c1=O)c1ccc(F)c2ccccc12 [Compound 270]"
reported_measurement = 0

[[record]]
compound = "CO/N=C(/c1c(O)c(C)nn(C)c1=O)c1cccc2cc(Cl)ccc12 [Compound 301]"
reported_measurement = 40

[[record]]
compound = "CCO/N=C(/c1c(O)c(C)nn(C)c1=O)c1cccc2cc(Cl)ccc12 [Compound 244]"
reported_measurement = 70

[[record]]
compound = "CO/N=C(\\c1c(O)cnn(C)c1=O)c1ccc(F)c2ccccc12 [Compound 303]"
reported_measurement = 0

[[record]]
compound = "C#CCO/N=C(/c1cccc(/C=C\\Cl)c1)c1c(O)c(C)nn(C)c1=O [Compound 261]"
reported_measurement = 0

[[record]]
compound = "CC(C)O/N=C(\\c1c(O)c(Cl)nn(C)c1=O)c1cc(Br)cc2ccccc12 [Compound 233]"
reported_measurement = 100


----------
system: kochia (Bassia scoparia); experiment: Test C preemergence, visual plant response rating; format: in vivo; settings: Test C, 125 g ai/ha, 0 is no effect, 100 is complete control
fulfilled means recorded Kochia plant response rating (0 to 100 scale) is 10 or above; not fulfilled means it is below 10.

[[record]]
mol_smiles = "Cc1nn(C)c(=O)c(C(=NOC(C)C)c2cc(Cl)cc(Cl)c2Cl)c1O"
group = "fulfilled"

[[record]]
mol_smiles = "C#CCO/N=C(\\c1cccc(Br)c1)c1c(O)c(C)nn(C)c1=O"
group = "fulfilled"

[[record]]
mol_smiles = "C#CCO/N=C(\\c1cc(Cl)cc(Br)c1)c1c(O)c(C)nn(C)c1=O"
group = "fulfilled"

[[record]]
mol_smiles = "CCO/N=C(\\c1c(O)c(C)nn(C)c1=O)c1cccc2cc(Cl)ccc12"
group = "fulfilled"

[[record]]
mol_smiles = "CO/N=C(/c1c(O)cnn(C)c1=O)c1ccc(F)c2ccccc12"
group = "not fulfilled"

[[record]]
mol_smiles = "CO/N=C(\\c1c(OC(C)=O)c(Cl)nn(C)c1=O)c1cc(Br)cc2ccccc12"
group = "not fulfilled"

[[record]]
mol_smiles = "CO/N=C(/c1ccc(F)c(Cl)c1)c1c(O)c(C)nn(C)c1=O"
group = "not fulfilled"

[[record]]
mol_smiles = "C#CCO/N=C(\\c1c(O)c(Cl)nn(C)c1=O)c1ccc(F)c2ccccc12"
group = "fulfilled"


The reported measurements were obtained from patent US20210045385A1.
